assay: Absorption property of the compound in THF assessed as extinction coefficient; format: physicochemical
# Activity per record follows
Reply numerically in M⁻¹ cm⁻¹, unit not repeated.

Here's what some known entries look like.
[[record]]
compound = "CCSc1ccc2c(c1)C1=Nc3c4ccc(SCC)cc4c4n3[B-]3(Oc5ccc(C[C@H](NC(=O)OC(C)(C)C)C(=O)OC)cc5)n5c(c6cc(SCC)ccc6c5=N4)=NC2=[N+]13 (some centres undefined)"
observation_type = "Activity"
observed_result = 97450

[[record]]
compound = "Cl[B-]12n3c4c5ccc(I)cc5c3N=c3c5ccc(I)cc5c(n31)=NC1=[N+]2C(=N4)c2ccc(I)cc21 (centres undefined)"
observation_type = "Activity"
observed_result = 65160

[[record]]
compound = "Fc1c(F)c(F)c2c(c1F)C1=Nc3c4c(F)c(F)c(F)c(F)c4c4n3[B-]3(OCc5ccc6c(c5)OCCOCCOCCOCCOCCO6)n5c(c6c(F)c(F)c(F)c(F)c6c5=N4)=NC2=[N+]13 (centres undefined)"
observation_type = "Activity"
observed_result = 81000

[[record]]
compound = "CCSc1ccc2c(c1)C1=Nc3c4ccc(SCC)cc4c4n3[B@-]3(Oc5ccc(C[C@H](N)C(=O)OC)cc5)n5c(c6cc(SCC)ccc6c5=N4)=NC2=[N+]13"
observation_type = "Activity"
observed_result = 66510

[[record]]
compound = "COC(=O)[C@H](Cc1ccc(O[B-]23n4c5c6c(F)c(F)c(F)c(F)c6c4N=c4c6c(F)c(F)c(F)c(F)c6c(n42)=NC2=[N+]3C(=N5)c3c(F)c(F)c(F)c(F)c32)cc1)NC(=O)OC(C)(C)C (some centres undefined)"
observation_type = "Activity"
observed_result = 27790


Reported Activity of COC(=O)[C@@H](N)Cc1ccc(O[B-]23n4c5c6ccc(I)cc6c4N=c4c6ccc(I)cc6c(n42)=NC2=[N+]3C(=N5)c3ccc(I)cc32)cc1 (some centres undefined) : 37460

Reported Activity of CCSc1ccc2c(c1)C1=Nc3c4ccc(SCC)cc4c4n3[B-]3(OCc5ccc6c(c5)OCCOCCOCCOCCOCCO6)n5c(c6cc(SCC)ccc6c5=N4)=NC2=[N+]13 (centres undefined) : 92080

Reported Activity of `Ic1ccc2c(c1)C1=[N+]3C2=Nc2c4ccc(I)cc4c4n2[B@-]3(OCc2ccc3c(c2)OCCOCCOCCOCCOCCO3)n2c(c3cc(I)ccc3c2=N4)=N1` : 80750

Reported Activity of `COC(=O)[C@H](Cc1ccc(O[B@@-]23n4c5c6ccc(I)cc6c4N=c4c6ccc(I)cc6c(n42)=NC2=[N+]3C(=N5)c3ccc(I)cc32)cc1)NC(=O)OC(C)(C)C` : 106120

* * *

assay: Fluorescence property of compound in EtOH assessed as quantum yield; type: physicochemical
# Activity per record follows
Please reply with the number alone, leaving off any unit.

[[record]]
molecule = "CCSc1ccc2c(c1)C1=Nc3c4ccc(SCC)cc4c4n3[B-]3(OCc5ccc6c(c5)OCCOCCOCCOCCOCCO6)n5c(c6cc(SCC)ccc6c5=N4)=NC2=[N+]13 (centres undefined)"
observed_result = 0.2

[[record]]
molecule = "CCSc1ccc2c(c1)C1=Nc3c4ccc(SCC)cc4c4n3[B-]3(Oc5ccc(C[C@H](NC(=O)OC(C)(C)C)C(=O)OC)cc5)n5c(c6cc(SCC)ccc6c5=N4)=NC2=[N+]13 (some centres undefined)"
observed_result = 0.2

[[record]]
molecule = "Cl[B-]12n3c4c5ccc(I)cc5c3N=c3c5ccc(I)cc5c(n31)=NC1=[N+]2C(=N4)c2ccc(I)cc21 (centres undefined)"
observed_result = 0.03

[[record]]
molecule = "Fc1c(F)c(F)c2c(c1F)C1=Nc3c4c(F)c(F)c(F)c(F)c4c4n3[B-]3(OCc5ccc6c(c5)OCCOCCOCCOCCOCCO6)n5c(c6c(F)c(F)c(F)c(F)c6c5=N4)=NC2=[N+]13 (centres undefined)"
observed_result = 0.014

[[record]]
molecule = "COC(=O)[C@H](Cc1ccc(O[B-]23n4c5c6c(F)c(F)c(F)c(F)c6c4N=c4c6c(F)c(F)c(F)c(F)c6c(n42)=NC2=[N+]3C(=N5)c3c(F)c(F)c(F)c(F)c32)cc1)NC(=O)OC(C)(C)C (some centres undefined)"
observed_result = 0.09


Reported Activity of COC(=O)[C@@H](N)Cc1ccc(O[B-]23n4c5c6ccc(I)cc6c4N=c4c6ccc(I)cc6c(n42)=NC2=[N+]3C(=N5)c3ccc(I)cc32)cc1 (some centres undefined) : 0.01

Reported Activity of `CCSc1ccc2c(c1)C1=Nc3c4ccc(SCC)cc4c4n3[B@-]3(Oc5ccc(C[C@H](N)C(=O)OC)cc5)n5c(c6cc(SCC)ccc6c5=N4)=NC2=[N+]13` : 0.16

Reported Activity of `Ic1ccc2c(c1)C1=[N+]3C2=Nc2c4ccc(I)cc4c4n2[B@-]3(OCc2ccc3c(c2)OCCOCCOCCOCCOCCO3)n2c(c3cc(I)ccc3c2=N4)=N1` : 0.022

Reported Activity of `COC(=O)[C@H](Cc1ccc(O[B@@-]23n4c5c6ccc(I)cc6c4N=c4c6ccc(I)cc6c(n42)=NC2=[N+]3C(=N5)c3ccc(I)cc32)cc1)NC(=O)OC(C)(C)C` : 0.03

* * *

# log10 of CC50 at 24 h per record follows
assay: Dark toxicity against human HeLa cells assessed as reduction in cell viability incubated for 24 hrs by neutral red uptake assay; type: cell-based; conditions: read-out: TC50
Please be aware that the numbers have been log10-transformed from CC50 at 24 h in µM.

Here's what some known entries look like.
[[record]]
molecule = "Ic1ccc2c(c1)C1=[N+]3C2=Nc2c4ccc(I)cc4c4n2[B@-]3(OCc2ccc3c(c2)OCCOCCOCCOCCOCCO3)n2c(c3cc(I)ccc3c2=N4)=N1"
observed_result = 1.37

[[record]]
molecule = "Fc1c(F)c(F)c2c(c1F)C1=Nc3c4c(F)c(F)c(F)c(F)c4c4n3[B-]3(OCc5ccc6c(c5)OCCOCCOCCOCCOCCO6)n5c(c6c(F)c(F)c(F)c(F)c6c5=N4)=NC2=[N+]13 (stereo not drawn)"
observed_result = 0.83

[[record]]
molecule = "COC(=O)[C@H](Cc1ccc(O[B-]23n4c5c6c(F)c(F)c(F)c(F)c6c4N=c4c6c(F)c(F)c(F)c(F)c6c(n42)=NC2=[N+]3C(=N5)c3c(F)c(F)c(F)c(F)c32)cc1)NC(=O)OC(C)(C)C (stereo partly drawn)"
observed_result = 1.82


Reported log10 of CC50 at 24 h of CCSc1ccc2c(c1)C1=Nc3c4ccc(SCC)cc4c4n3[B-]3(OCc5ccc6c(c5)OCCOCCOCCOCCOCCO6)n5c(c6cc(SCC)ccc6c5=N4)=NC2=[N+]13 (stereo not drawn) : 0.72

Reported log10 of CC50 at 24 h of `CCSc1ccc2c(c1)C1=Nc3c4ccc(SCC)cc4c4n3[B@-]3(Oc5ccc(C[C@H](N)C(=O)OC)cc5)n5c(c6cc(SCC)ccc6c5=N4)=NC2=[N+]13` : 1.84

* * *

assay: Emission maximum of the compound in THF; assay type: physicochemical
# Activity per record follows
Reply numerically in nm, unit not repeated.

Here's what some known entries look like.
[[record]]
compound = "CCSc1ccc2c(c1)C1=Nc3c4ccc(SCC)cc4c4n3[B-]3(Oc5ccc(C[C@H](NC(=O)OC(C)(C)C)C(=O)OC)cc5)n5c(c6cc(SCC)ccc6c5=N4)=NC2=[N+]13 (stereo not given in full)"
observed_result = 596

[[record]]
compound = "CCSc1ccc2c(c1)C1=Nc3c4ccc(SCC)cc4c4n3[B@-]3(Oc5ccc(C[C@H](N)C(=O)OC)cc5)n5c(c6cc(SCC)ccc6c5=N4)=NC2=[N+]13"
observed_result = 594

[[record]]
compound = "COC(=O)[C@@H](N)Cc1ccc(O[B-]23n4c5c6ccc(I)cc6c4N=c4c6ccc(I)cc6c(n42)=NC2=[N+]3C(=N5)c3ccc(I)cc32)cc1 (stereo not given in full)"
observed_result = 578

[[record]]
compound = "COC(=O)[C@H](Cc1ccc(O[B-]23n4c5c6c(F)c(F)c(F)c(F)c6c4N=c4c6c(F)c(F)c(F)c(F)c6c(n42)=NC2=[N+]3C(=N5)c3c(F)c(F)c(F)c(F)c32)cc1)NC(=O)OC(C)(C)C (stereo not given in full)"
observed_result = 578

[[record]]
compound = "COC(=O)[C@H](Cc1ccc(O[B@@-]23n4c5c6ccc(I)cc6c4N=c4c6ccc(I)cc6c(n42)=NC2=[N+]3C(=N5)c3ccc(I)cc32)cc1)NC(=O)OC(C)(C)C"
observed_result = 577


Reported Activity of CCSc1ccc2c(c1)C1=Nc3c4ccc(SCC)cc4c4n3[B-]3(OCc5ccc6c(c5)OCCOCCOCCOCCOCCO6)n5c(c6cc(SCC)ccc6c5=N4)=NC2=[N+]13 (stereo not given) : 594

Reported Activity of Cl[B-]12n3c4c5ccc(I)cc5c3N=c3c5ccc(I)cc5c(n31)=NC1=[N+]2C(=N4)c2ccc(I)cc21 (stereo not given) : 581

Reported Activity of `Ic1ccc2c(c1)C1=[N+]3C2=Nc2c4ccc(I)cc4c4n2[B@-]3(OCc2ccc3c(c2)OCCOCCOCCOCCOCCO3)n2c(c3cc(I)ccc3c2=N4)=N1` : 578

Reported Activity of CC1(C)CCC(C)(C)c2cc3c(cc21)C1=Nc2c4cc5c(cc4c4n2[B-]2(Cl)n6c(c7cc8c(cc7c6=N4)C(C)(C)CCC8(C)C)=NC3=[N+]12)C(C)(C)CCC5(C)C (stereo not given) : 587

Reported Activity of Fc1c(F)c(F)c2c(c1F)C1=Nc3c4c(F)c(F)c(F)c(F)c4c4n3[B-]3(OCc5ccc6c(c5)OCCOCCOCCOCCOCCO6)n5c(c6c(F)c(F)c(F)c(F)c6c5=N4)=NC2=[N+]13 (stereo not given) : 579
